Give measured inhibition for each item. Keep answers brief.
TARGET SYSTEM: Beta-glucuronidase (Homo sapiens) (UniProt P08236)
Sequence (P08236 whole entry): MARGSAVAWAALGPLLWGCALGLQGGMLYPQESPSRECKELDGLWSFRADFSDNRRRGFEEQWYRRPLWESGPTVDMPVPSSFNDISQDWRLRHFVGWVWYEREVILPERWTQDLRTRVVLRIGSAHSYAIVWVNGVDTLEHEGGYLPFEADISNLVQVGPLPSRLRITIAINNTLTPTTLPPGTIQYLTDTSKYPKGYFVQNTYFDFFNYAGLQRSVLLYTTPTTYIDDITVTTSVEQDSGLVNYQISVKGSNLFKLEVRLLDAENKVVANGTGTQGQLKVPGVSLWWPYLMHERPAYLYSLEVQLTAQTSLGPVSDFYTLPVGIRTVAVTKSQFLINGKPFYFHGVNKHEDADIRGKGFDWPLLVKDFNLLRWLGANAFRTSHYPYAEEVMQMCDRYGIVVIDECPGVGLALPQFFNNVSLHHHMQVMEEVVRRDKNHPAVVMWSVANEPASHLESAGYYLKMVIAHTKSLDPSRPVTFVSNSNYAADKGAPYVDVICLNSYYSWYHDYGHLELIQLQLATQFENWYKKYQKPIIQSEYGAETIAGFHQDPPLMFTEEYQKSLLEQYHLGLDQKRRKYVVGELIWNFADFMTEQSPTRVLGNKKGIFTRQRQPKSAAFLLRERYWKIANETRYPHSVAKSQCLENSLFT
PROTOCOL DESCRIPTION: Inhibition of beta-glucuronidase (unknown origin) using p-nitrophenyl-beta-D-glucopyranosiduronic acid as substrate at 1 uM after 30 min by spectrophotometric analysis
# value in %; strip the unit string

QUERY: Need inhibition of `COc1cc(OC)c(/C=C/C(=O)c2cccc(NC(=O)c3ccccc3)c2)c(OC)c1Br` , thanks.
RESULT: 49.6

QUERY: Recorded inhibition for `COc1cc(OC)c(/C=C/C(=O)c2cccc(NC(=O)c3cccc(Br)c3)c2)c(OC)c1Br` , please?
RESULT: 84.7

QUERY: So what's the measured inhibition for this one? `COc1cc(OC)c(/C=C/C(=O)c2cccc(NC(=O)c3cccc(C)c3)c2)c(OC)c1Br`
RESULT: 66.9

QUERY: Which value of inhibition has been reported for `COc1cc(OC)c(/C=C/C(=O)c2cccc(NC(=O)c3cccc(C(F)(F)F)c3)c2)c(OC)c1Br` in the records?
RESULT: 81.4

QUERY: Query: inhibition; subject: `COc1cc(OC)c(/C=C/C(=O)c2cccc(NC(=O)c3ccc(F)cc3)c2)c(OC)c1Br`
RESULT: 79.4

QUERY: Quick one: inhibition for `COc1cc(OC)c(/C=C/C(=O)c2cccc(NC(=O)c3cccc(Cl)c3)c2)c(OC)c1Br` ?
RESULT: 78.2

QUERY: Which measured inhibition value corresponds to `COc1cc(OC)c(/C=C/C(=O)c2cccc(NC(=O)c3cccs3)c2)c(OC)c1Br` ?
RESULT: 44.7

QUERY: Request the reported inhibition associated with `COc1cc(OC)c(/C=C/C(=O)c2cccc(NC(=O)c3ccc(C(C)(C)C)cc3)c2)c(OC)c1Br`
RESULT: 82.5

QUERY: So what's the measured inhibition for this one? `COc1cc(OC)c(/C=C/C(=O)c2cccc(NC(=O)c3ccccc3C(F)(F)F)c2)c(OC)c1Br`
RESULT: 76.9

QUERY: Need inhibition of `COc1cc(OC)c(/C=C/C(=O)c2cccc(NC(=O)c3ccccc3F)c2)c(OC)c1Br` , thanks.
RESULT: 74.2

QUERY: Quick check: inhibition of `COc1cc(OC)c(/C=C/C(=O)c2cccc(NC(=O)c3ccccc3C)c2)c(OC)c1Br` ?
RESULT: 29.7

QUERY: Quick one: inhibition of `COc1cc(OC)c(/C=C/C(=O)c2cccc(NC(=O)c3cccc(F)c3)c2)c(OC)c1Br` ?
RESULT: 72.9

QUERY: Value lookup for inhibition; key = `COc1ccc(C(=O)Nc2cccc(C(=O)/C=C/c3c(OC)cc(OC)c(Br)c3OC)c2)cc1`
RESULT: 34

QUERY: Any idea what inhibition was measured for `O=C(O)c1ccccc1O` ?
RESULT: 24.8

---

PROTOCOL DESCRIPTION: Antioxidant activity assessed as hydroxyl radical scavenging activity at 1 uM by spectrophotometric analysis
Assay type: functional
For each entry below, report its Activity value.
Just the number please, in %, no unit attached.

QUERY: Which value of Activity has been reported for `COc1cc(OC)c(/C=C/C(=O)c2cccc(NC(=O)c3cccc(F)c3)c2)c(OC)c1Br` in the records?
RESULT: 32.2

QUERY: Quick one: Activity of `COc1ccc(C(=O)Nc2cccc(C(=O)/C=C/c3c(OC)cc(OC)c(Br)c3OC)c2)cc1` ?
RESULT: 21.2

QUERY: Any idea what Activity was measured for `COc1cc(OC)c(/C=C/C(=O)c2cccc(NC(=O)c3ccccc3C(F)(F)F)c2)c(OC)c1Br` ?
RESULT: 35.9

QUERY: What measured Activity goes with `COc1cc(OC)c(/C=C/C(=O)c2cccc(NC(=O)c3ccccc3C)c2)c(OC)c1Br` ?
RESULT: 34.6

QUERY: Quick one: Activity of `COc1cc(OC)c(/C=C/C(=O)c2cccc(NC(=O)c3ccccc3)c2)c(OC)c1Br` ?
RESULT: 54.1

QUERY: Please give the measured Activity for this compound: `COc1cc(OC)c(/C=C/C(=O)c2cccc(NC(=O)c3cccc(C)c3)c2)c(OC)c1Br`
RESULT: 38.3

QUERY: Which Activity is listed for `COc1cc(OC)c(/C=C/C(=O)c2cccc(NC(=O)c3ccc(F)cc3)c2)c(OC)c1Br` ?
RESULT: 33.4

QUERY: Fill in the blank: the reported Activity of `COc1cc(OC)c(/C=C/C(=O)c2cccc(NC(=O)c3cccs3)c2)c(OC)c1Br` is ____.
RESULT: 49.3

QUERY: Requested read-out: Activity. Entry: `COc1cc(OC)c(/C=C/C(=O)c2cccc(NC(=O)c3cccc(Br)c3)c2)c(OC)c1Br`
RESULT: 23.6

QUERY: Look up Activity: `COc1cc(OC)c(/C=C/C(=O)c2cccc(NC(=O)c3ccccc3F)c2)c(OC)c1Br`
RESULT: 43.2

QUERY: What value of measured Activity is listed for `COc1cc(OC)c(/C=C/C(=O)c2cccc(NC(=O)c3ccc(C(C)(C)C)cc3)c2)c(OC)c1Br` ?
RESULT: 27.3

The reported measurements were obtained from ChEMBL document CHEMBL3046347.
